# System Under Test: T1, AcrIIA15 full-length (UniProt PDB:8JG9_3 1-171)
# T1 sequence: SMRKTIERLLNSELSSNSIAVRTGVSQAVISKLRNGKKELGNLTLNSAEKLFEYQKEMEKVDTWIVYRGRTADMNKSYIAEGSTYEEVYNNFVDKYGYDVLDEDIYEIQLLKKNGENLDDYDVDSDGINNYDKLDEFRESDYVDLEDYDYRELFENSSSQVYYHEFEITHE
# Run Description: SPR; Promoter EMSA: 20 mM Tris-HCl pH 7.5, 300 mM NaCl, on ice/4 C, 30 min; SaCas9 EMSA: 20 mM Tris pH 7.5, 200 mM NaCl, 10 mM EDTA, RT; SPR: 10 mM Na2HPO4, 2 mM KH2PO4, 0.3 M NaCl; SEC: 20 mM Tris pH 7.5, 300 mM NaCl
# Experimental Parameters: protein: recombinant; tags: C-terminal His6, or His6-Sumo removed by Ulp1; chain copies: 2; blunt
Test Readout: pKd
The scale used: pKd is minus the common logarithm of the concentration in molar units.

The reported pKd of the binder IR2 (dsDNA) DNA 1: TGACTTATGACGAACGTCATAATATA DNA 2: TATATTATGACGTTCGTCATAAGTCA was 8.74

The reported pKd of the binder IR1 (dsDNA) DNA 1: ATAATTATGACAAATGTCATAGAAAA DNA 2: TTTTCTATGACATTTGTCATAATTAT was 8.13
